So I've got a bunch of compounds here, and I need their double positive events values.
Experiment: reduced mouse 2C T cell binding to pMHC/ICAM-1 vesicles – MLPCN validation set, flow cytometry, LFA-1/ICAM-1 modulator project, pilot screen (AID 2523)
Conditions: 2C mouse CD8+ T cells, at 7 µM, stronger effect = lower value; measured here: CD8+/vesicle+ event percentage
One number for each entry, in %.

Example cases with answers are listed next.
* COc1cc2c(cc1OC)C(C)=NC1(CCCCC1)C2 | 62.8
* CS(=O)c1ccccc1O (stereo unspecified) | 67.1
* Cc1oc2cc(O)cc(O)c2c(=O)c1-c1ccc2c(c1)OCCCO2 | 60.8
* COc1cc(CNc2nnnn2C)ccc1OCc1ccc(F)cc1Cl | 66.7
* CCOC(=O)C1C(=O)OC2(CCOC(C)(C)C2)C1C(=O)OCC (stereo unspecified) | 70.8

Let us move to another entry and its double positive events.
Request: Quickly give me recorded double positive events for COc1ccc2[nH]c(CN3CCN(CC(C)C)C(CCO)C3)c(C)c2c1 (stereo unspecified)
Response: 61.7

###

Tested on: anti-desmoglein-3 scFv antibody binding to human DSG3
Experiment: blockers of pathogenic pemphigus antibody–desmoglein-3 binding – biochemical, validation compound set, bead-based, flow cytometry, pilot screen (AID 588368);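 also: signal is the median channel fluorescence of bead-bound GFP antibody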
Conditions: Protein G beads, DSG3-Fc, scFv-GFP binding, at 10 µM, stronger effect = lower value
So I've got a bunch of molecules here, and I need their binding (% of control) values.
One number for each entry, in %.

Working through the 5 molecules below one at a time, give binding (% of control) for each.
1. Nc1nc(SCc2ccc([N+](=O)[O-])cc2)c2ncn(C3OC(CO)C(O)C3O)c2n1 (stereo not given)
2. CC(=O)Nc1c(I)c(NC(C)=O)c(I)c(C(=O)O)c1I
3. COC(=O)c1[nH]c2ccc(C)cc2c1NC(=O)CN1CCc2cc(OC)c(OC)cc2C1
4. O=c1nc2sc3ccccc3n2c(=O)n1-c1ccc(Cl)cc1
5. Cc1ccc2c(c1)C1OCCC1C1N2C(=O)C2C(C(=O)O)C3C=CC21O3 (stereo not given)

Response:
1. 98.1
2. 95
3. 101
4. 96.4
5. 101

###

So I've got a bunch of compounds here, and I need their inhibition values.
Molecular target: ATP-binding cassette sub-family B member 6 (Homo sapiens)
Assay: blockers of ABCB6-driven porphyrin uptake – K562-ABCB6 cells, flow cytometry, validation set, pilot screen (AID 588550);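 also: 0% = DMSO wells and 100% = benzethonium chloride 70 µM positive control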
Details: K562-ABCB6 porphyrin accumulation, 1 h, at 10 µM, stronger effect = higher value
One number for each entry, in %.

• CCN(CC)C(=O)N1CCN(C)CC1 = 9
• O=C(Nc1nc2ccccc2s1)c1ccc(F)cc1 = 9
• CCSC(=O)CCCCCCCCCCCO = -2
• COc1ccc2c(c1OC)C(C1c3c(cc4c(c3OC)OCO4)CCN1C)OC2=O (configuration not stated) = 6
• COc1ccc2[nH]c(CN3CCN(CC(C)C)C(CCO)C3)c(C)c2c1 (configuration not stated) = 6

Working through the 5 compounds below one at a time, give inhibition for each.
1. COc1ccc2nc(C)cc(Nc3ccccc3O)c2c1
2. CC(=O)Oc1c2occc2cc2ccc(=O)oc12
3. O=C(Nc1cccc(C(=O)O)c1)/C(=C\c1ccccc1)NC(=O)c1ccccc1
4. CN(C)C(=O)Oc1ccc[n+](C)c1
5. Cc1c(O)c(=O)ccn1C

Response:
[9, 8, 15, 13, 9]

Working through the 2 compounds below one at a time, give inhibition for each.
1. CC(=O)c1cc2c(cc1NC(=O)c1ccco1)OCCO2
2. CCCCCC(=O)O[C@]1(C(C)=O)CC[C@H]2[C@@H]3CCC4=CC(=O)CC[C@]4(C)[C@H]3CC[C@@]21C

Response:
[2, 2]

###

Experiment: reduced mouse 2C T cell binding to pMHC/ICAM-1 vesicles – MLPCN validation set, flow cytometry, LFA-1/ICAM-1 modulator project, pilot screen (AID 2523)
Conditions: 2C mouse CD8+ T cells, at 7 µM, stronger effect = lower value; measured here: CD8+/vesicle+ event percentage
PROPERTY_NAME: double positive events (%)
Numbers only, in %.

Example cases with answers are listed next.
- CC(=O)[C@@]1(O)CC[C@H]2[C@@H]3C[C@H](C)C4=CC(=O)CC[C@]4(C)[C@H]3CC[C@@]21C: 72
- COc1ccc(-c2c[n+](CC(=O)OC3CC(C)CCC3C(C)C)c3n2CCC3)cc1 (stereo not given): 57.8
- O=C(O)c1cccnc1Nc1cccc(C(F)(F)F)c1: 63.3
- N=c1nc(N2CCCCC2)cc(N)n1O: 59.7

Let us move to another entry and its double positive events.
Request: Quickly give me recorded double positive events for CC(=O)N1CCN(c2ccc(NC(=O)/C=C/c3ccccc3)cc2)CC1
Response: 63.1

###

Test: cytosolic pH regulators acting via V-ATPase – S. cerevisiae, pHLuorin, HTS validation (AID 504600);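 also: plate controls were DMSO for no effect and reference compound for full effect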
Conditions: V-ATPase proton transport, at 10 µM, stronger effect = higher value
So I've got a bunch of molecules here, and I need their response values.
Numbers only, in %.

Working through the 8 molecules below one at a time, give response for each.
1. Cc1ccc(C2CC(c3cccs3)=NN2C(=O)c2ccco2)o1 (stereo unspecified)
2. Cc1ccc(C(=O)NCCNC(=O)c2ccccc2)cc1
3. O=C(/C=C/c1ccccc1)c1ccccc1
4. Cc1ccc(CN2CCN(Cc3cn[nH]c3C3CCCCC3)CC2CCO)cc1 (stereo unspecified)
5. CO[C@H]1C=CO[C@@]2(C)Oc3c(C)c(O)c4c(O)c(c(C=NN5CCN(C)CC5)c(O)c4c3C2=O)NC(=O)C(C)=CC=C[C@H](C)[C@H](O)[C@@H](C)[C@@H](O)[C@@H](C)[C@H](OC(C)=O)[C@@H]1C
6. Cc1ccc2c(c1)C1CN(C)CCC1N2S(=O)(=O)c1ccc(Oc2ccc([N+](=O)[O-])cc2)cc1 (stereo unspecified)
7. Cc1cc(O)c(C(=O)Cc2csc(C)n2)c(O)c1
8. N#Cc1cc2c([nH]c1=O)CCCC2

Response:
[-7.57, -1.2, -0.45, -2.29, -1.49, 10.4, -0.65, 12.5]

Working through the 3 molecules below one at a time, give response for each.
1. COc1ccc(C(=O)COc2ccc(F)cc2)c(O)c1
2. CCc1cc(-c2[nH]ncc2-c2ccc3c(c2)OCO3)c(O)cc1O
3. COc1cc(C2C(C(C)=O)=C(O)C(=O)N2c2ccc(C)cc2)ccc1O (stereo unspecified)

Response:
1: 2.77; 2: 0.5; 3: -8.34

###

So I've got a bunch of molecules here, and I need their binding (% of control) values.
Tested on: anti-desmoglein-3 scFv antibody binding to human DSG3
Assay: blockers of pathogenic pemphigus antibody–desmoglein-3 binding – biochemical, validation compound set, bead-based, flow cytometry, pilot screen (AID 588368);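 also: signal is the median channel fluorescence of bead-bound GFP antibody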
Settings: Protein G beads, DSG3-Fc, scFv-GFP binding, at 10 µM, stronger effect = lower value
Answers are plain numbers, in %.

• CCOc1ccc2[nH]c3c(=O)n(CCc4ccc(OC)cc4)cnc3c2c1 = 102
• CC(=O)OCC(=O)[C@@]1(O)[C@H](C)C[C@H]2[C@@H]3CCC4=CC(=O)C=C[C@]4(C)[C@@]3(F)[C@@H](O)C[C@@]21C = 99.4
• CC(=O)O[C@H]1C[C@@]2(C)[C@@H](C[C@@H](O)[C@H]3[C@@]4(C)CC[C@@H](O)[C@@H](C)C4CC[C@@]32C)/C1=C(\CCC=C(C)C)C(=O)O (some centres not stated) = 100
• COc1cc(CNCCc2ccccc2F)ccc1OCC(=O)N1CCCCC1 = 98.2
• COC(=O)c1ccc(OCCCCN2CC(C)OC(C)C2)cc1 (configuration not stated) = 98.3
• CCN(CCCCCN(C)C)Cc1cc2ccccc2o1 = 102
• Cc1ccc(-c2nnc(-c3ccc4c(c3)OCO4)o2)cc1 = 99.9
• O=C(CC(NC(=O)OCc1ccccc1)C(=O)O)OCc1ccccc1 (configuration not stated) = 97.1

Working through the 2 molecules below one at a time, give binding (% of control) for each.
1. COCCCN1C(=O)C(=O)/C(=C(/O)c2ccc3c(c2)CC(C)O3)C1c1cccnc1 (configuration not stated)
2. COc1ccccc1C(=O)Oc1ccc2c(c1)O/C(=C\c1ccncc1)C2=O

Response:
[108, 103]

Working through the 5 molecules below one at a time, give binding (% of control) for each.
1. NS(=O)(=O)c1cc2c(cc1Cl)NC(C(Cl)Cl)NS2(=O)=O (configuration not stated)
2. CCOc1cc(C=O)ccc1OCCSc1ccc(C)cc1
3. CCCCC(=O)O[C@H]1CC[C@H]2[C@@H]3CCc4cc(O)ccc4[C@H]3CC[C@]12C
4. O=C(CCc1c[nH]c2ccccc12)NCc1ccco1
5. CC(=O)Oc1ccc2c(=O)c(Oc3ccccc3[N+](=O)[O-])coc2c1

Response:
1: 104; 2: 98.9; 3: 106; 4: 103; 5: 101
